molecular target: human CD33 F21I (human, UniProt P20138 18-364); test: flow cytometry, mutant on cells, IgG
Sequence (P20138 18-364 F21I limits assumed): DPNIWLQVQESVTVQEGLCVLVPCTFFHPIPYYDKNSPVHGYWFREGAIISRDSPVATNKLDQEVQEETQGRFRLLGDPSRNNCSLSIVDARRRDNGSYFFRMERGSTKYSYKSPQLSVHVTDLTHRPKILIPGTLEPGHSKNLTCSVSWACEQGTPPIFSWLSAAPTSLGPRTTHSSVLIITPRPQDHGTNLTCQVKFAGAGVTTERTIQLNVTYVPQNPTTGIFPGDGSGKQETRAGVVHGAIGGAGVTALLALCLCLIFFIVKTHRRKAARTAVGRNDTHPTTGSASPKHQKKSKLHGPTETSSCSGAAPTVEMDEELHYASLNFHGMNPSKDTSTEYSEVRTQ
Listed here are binders together with their documented Mean % WT Binding.
Note: unit % WT binding is implicit; provide only the numeric part.

Previously resolved entries follow.
INSERT INTO assay_data (binder, attribute_measured, value_measured) VALUES
  ('Refmab #3 (antibody, human IgG1, V domains shown, Tested in IgG format; human IgG1 Fc silent (PG-LALA)) VH: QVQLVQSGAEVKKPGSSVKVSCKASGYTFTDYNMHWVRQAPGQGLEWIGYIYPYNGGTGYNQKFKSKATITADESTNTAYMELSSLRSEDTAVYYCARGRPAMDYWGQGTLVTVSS VL: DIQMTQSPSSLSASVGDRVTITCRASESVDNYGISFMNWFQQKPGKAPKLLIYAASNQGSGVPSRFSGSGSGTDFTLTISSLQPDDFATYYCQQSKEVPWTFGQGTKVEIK', 'Mean % WT Binding', 0.5),
  ('Refmab #1 (antibody, human IgG1, V domains shown, Tested in IgG format; human IgG1 (Absolute Antibody hP67.6, Cat. No. Ab00283-10.0); also called hP67.6) VH: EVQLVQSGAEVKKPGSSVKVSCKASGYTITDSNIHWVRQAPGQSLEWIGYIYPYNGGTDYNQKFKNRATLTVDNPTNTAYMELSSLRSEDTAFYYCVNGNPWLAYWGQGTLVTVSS VL: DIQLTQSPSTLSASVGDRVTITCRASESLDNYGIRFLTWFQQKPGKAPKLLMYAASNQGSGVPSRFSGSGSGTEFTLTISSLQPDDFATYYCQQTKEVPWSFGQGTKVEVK', 'Mean % WT Binding', 1.9),
  ('Refmab #2 (antibody, human IgG1, V domains shown, Tested in IgG format; human IgG1 Fc silent (PG-LALA)) VH: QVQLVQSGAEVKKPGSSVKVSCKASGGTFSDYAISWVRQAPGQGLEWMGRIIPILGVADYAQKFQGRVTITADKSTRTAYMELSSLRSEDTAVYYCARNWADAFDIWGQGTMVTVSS VL: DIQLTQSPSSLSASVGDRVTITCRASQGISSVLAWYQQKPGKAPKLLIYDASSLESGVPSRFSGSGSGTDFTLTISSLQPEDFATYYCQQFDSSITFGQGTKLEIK', 'Mean % WT Binding', 86.8);

Continue with the binder presented below.
State the recorded Mean % WT Binding for this entry: Refmab #4 (antibody, human IgG1, V domains shown, Tested in IgG format; human IgG1 Fc silent (PG-LALA)) VH: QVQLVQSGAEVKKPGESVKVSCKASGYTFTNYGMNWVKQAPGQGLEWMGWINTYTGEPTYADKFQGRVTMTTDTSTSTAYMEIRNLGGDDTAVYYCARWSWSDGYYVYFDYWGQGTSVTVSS VL: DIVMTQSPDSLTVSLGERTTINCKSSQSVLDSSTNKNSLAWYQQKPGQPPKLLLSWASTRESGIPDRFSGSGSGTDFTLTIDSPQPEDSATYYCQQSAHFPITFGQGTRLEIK 96.3
